The origin of these recorded values is patent US10494332B2.

Form field: pIC50 (one value per entry).
Molecular target: UniProt:Q06124
Sequence (Q06124 224-528): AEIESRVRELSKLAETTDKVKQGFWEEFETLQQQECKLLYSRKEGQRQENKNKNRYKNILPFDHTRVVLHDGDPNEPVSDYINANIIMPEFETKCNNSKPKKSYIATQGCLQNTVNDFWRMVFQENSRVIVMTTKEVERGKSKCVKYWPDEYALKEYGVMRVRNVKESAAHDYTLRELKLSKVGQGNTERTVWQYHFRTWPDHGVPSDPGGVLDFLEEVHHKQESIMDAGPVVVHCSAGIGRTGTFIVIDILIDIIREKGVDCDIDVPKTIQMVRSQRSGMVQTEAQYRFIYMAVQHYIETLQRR
Assay: SHP2 phosphatase inhibition assay (pNPP)
Type: biochemical
Details: pNPP at Km, pH 7.0, 25° C.; read-out: IC50 SHP2
pIC50: −log10 of the molar value.

Solved entries (count: 3):
# pIC50 (molecule: O=C(Nc1ccc2nc(C(F)(F)F)[nH]c2c1)C(c1ccccc1)S(=O)(=O)O (stereo not shown) ) is < 3.70

# pIC50 (molecule: O=C(Nc1nccs1)C(c1ccccc1)S(=O)(=O)O (stereo not shown) ) is < 4.00

# pIC50 (molecule: O=C(NCCNC(=O)C(c1ccccc1)S(=O)(=O)O)c1cccc(C(=O)c2ccccc2)c1 (stereo not shown) ) is < 3.70

Others:
# pIC50 (molecule: O=C(Nc1ccc(OCc2ccccc2)c(Cl)c1)C(c1ccccc1)S(=O)(=O)O (stereo not shown) ) is < 3.70

* * *

Target: CD45 (Homo sapiens, UniProt P08575)
Sequence (P08575 26-1306): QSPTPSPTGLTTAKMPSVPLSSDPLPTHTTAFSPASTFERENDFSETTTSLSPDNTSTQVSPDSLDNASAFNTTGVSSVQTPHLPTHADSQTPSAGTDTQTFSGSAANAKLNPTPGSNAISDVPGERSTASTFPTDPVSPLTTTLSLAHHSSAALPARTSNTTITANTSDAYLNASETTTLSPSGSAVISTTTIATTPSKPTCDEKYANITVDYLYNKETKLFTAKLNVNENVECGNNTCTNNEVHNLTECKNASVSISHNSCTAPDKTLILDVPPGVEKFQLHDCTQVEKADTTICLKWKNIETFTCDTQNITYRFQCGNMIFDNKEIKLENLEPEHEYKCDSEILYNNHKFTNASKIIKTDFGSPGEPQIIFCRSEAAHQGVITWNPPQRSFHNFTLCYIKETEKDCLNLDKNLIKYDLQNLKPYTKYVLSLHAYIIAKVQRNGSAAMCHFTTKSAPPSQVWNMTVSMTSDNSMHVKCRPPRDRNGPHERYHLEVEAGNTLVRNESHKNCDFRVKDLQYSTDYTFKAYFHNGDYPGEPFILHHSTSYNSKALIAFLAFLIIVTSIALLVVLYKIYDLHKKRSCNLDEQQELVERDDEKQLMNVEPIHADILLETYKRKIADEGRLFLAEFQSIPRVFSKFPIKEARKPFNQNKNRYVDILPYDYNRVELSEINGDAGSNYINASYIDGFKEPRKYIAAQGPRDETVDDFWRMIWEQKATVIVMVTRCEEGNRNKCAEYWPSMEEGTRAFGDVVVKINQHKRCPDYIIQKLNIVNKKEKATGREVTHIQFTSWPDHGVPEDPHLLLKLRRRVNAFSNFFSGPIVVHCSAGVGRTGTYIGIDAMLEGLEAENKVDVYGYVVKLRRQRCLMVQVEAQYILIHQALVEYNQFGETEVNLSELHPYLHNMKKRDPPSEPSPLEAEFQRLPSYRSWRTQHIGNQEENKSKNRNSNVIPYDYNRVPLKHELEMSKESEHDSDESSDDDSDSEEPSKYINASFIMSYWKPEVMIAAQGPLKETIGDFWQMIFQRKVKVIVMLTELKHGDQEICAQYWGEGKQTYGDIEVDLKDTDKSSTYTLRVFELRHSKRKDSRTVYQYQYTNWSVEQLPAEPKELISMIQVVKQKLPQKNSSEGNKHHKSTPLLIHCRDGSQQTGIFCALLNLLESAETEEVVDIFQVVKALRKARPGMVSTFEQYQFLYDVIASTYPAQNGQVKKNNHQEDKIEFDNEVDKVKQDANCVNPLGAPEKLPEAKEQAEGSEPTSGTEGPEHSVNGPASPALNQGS
measure: IC50 (µM)
Kindly provide the numeric value in µM only, without the unit symbol.

# IC50 (molecule: O=C(Nc1nc2ccc(OC(F)(F)F)cc2s1)C(c1ccccc1)S(=O)(=O)O (stereo not shown) ) is 80

Others:
# IC50 (molecule: O=C(Nc1nc2ccc(Cl)cc2s1)C(c1ccccc1)S(=O)(=O)O (stereo not shown) ) is 130

# IC50 (molecule: O=C(Nc1nc(-c2ccccc2)cs1)C(c1ccccc1)S(=O)(=O)O (stereo not shown) ) is 70

* * *

target: Laforin (Homo sapiens); assay: PTP inhibition assay (pNPP); assay type: biochemical; conditions: pNPP at Km, pH 7.0, 25° C.; read-out: IC50 Laforin
Sequence (O95278 whole entry): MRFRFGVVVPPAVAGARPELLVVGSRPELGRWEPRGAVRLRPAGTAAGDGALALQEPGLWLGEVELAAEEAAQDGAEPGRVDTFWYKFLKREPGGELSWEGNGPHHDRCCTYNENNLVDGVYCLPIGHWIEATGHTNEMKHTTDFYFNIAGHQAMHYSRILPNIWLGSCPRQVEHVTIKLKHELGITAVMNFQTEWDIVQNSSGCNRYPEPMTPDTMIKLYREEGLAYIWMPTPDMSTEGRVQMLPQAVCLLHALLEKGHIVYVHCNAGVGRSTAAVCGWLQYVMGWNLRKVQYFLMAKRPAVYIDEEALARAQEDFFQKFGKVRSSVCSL
pIC50: −log10 of the molar value.
Form field: pIC50 (one value per entry).

Solved entries (count: 2):
# pIC50 (compound: O=C(C(c1ccccc1)S(=O)(=O)O)N1CCCC2CCCCC21 (stereo not drawn) ) is < 3.70

# pIC50 (compound: `O=C(CS(=O)(=O)O)Nc1ccc2nc(C(F)(F)F)[nH]c2c1` ) is < 4.00

In the following, a different compound is considered.
# pIC50 (compound: `O=C(CS(=O)(=O)O)Nc1nc2ccccc2s1` ) is < 4.00

* * *

target: LMWPTP (Homo sapiens, UniProt P24666); assay: PTP inhibition assay (pNPP); assay type: biochemical; details: pNPP at Km, pH 7.0, 25° C.
Sequence (P24666 whole entry): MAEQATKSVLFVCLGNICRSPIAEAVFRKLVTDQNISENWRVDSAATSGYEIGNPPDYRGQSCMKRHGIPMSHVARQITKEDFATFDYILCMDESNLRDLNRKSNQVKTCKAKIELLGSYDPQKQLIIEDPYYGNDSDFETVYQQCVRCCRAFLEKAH
pIC50: −log10 of the molar value.
Form field: pIC50 (one value per entry).

Solved entries (count: 2):
# pIC50 (molecule: O=C(Nc1nc2ccccc2s1)C(c1ccc([N+](=O)[O-])cc1)S(=O)(=O)O (stereo not shown) ) is < 3.70

# pIC50 (molecule: O=C(C(c1ccccc1)S(=O)(=O)O)N1CCC(Cc2ccccc2)CC1 (stereo not shown) ) is < 3.70

Others:
# pIC50 (molecule: O=C(C(c1ccccc1)S(=O)(=O)O)N1CCCC2CCCCC21 (stereo not shown) ) is < 3.70

* * *

Target: UniProtKB P08575
Sequence (P08575 26-1306): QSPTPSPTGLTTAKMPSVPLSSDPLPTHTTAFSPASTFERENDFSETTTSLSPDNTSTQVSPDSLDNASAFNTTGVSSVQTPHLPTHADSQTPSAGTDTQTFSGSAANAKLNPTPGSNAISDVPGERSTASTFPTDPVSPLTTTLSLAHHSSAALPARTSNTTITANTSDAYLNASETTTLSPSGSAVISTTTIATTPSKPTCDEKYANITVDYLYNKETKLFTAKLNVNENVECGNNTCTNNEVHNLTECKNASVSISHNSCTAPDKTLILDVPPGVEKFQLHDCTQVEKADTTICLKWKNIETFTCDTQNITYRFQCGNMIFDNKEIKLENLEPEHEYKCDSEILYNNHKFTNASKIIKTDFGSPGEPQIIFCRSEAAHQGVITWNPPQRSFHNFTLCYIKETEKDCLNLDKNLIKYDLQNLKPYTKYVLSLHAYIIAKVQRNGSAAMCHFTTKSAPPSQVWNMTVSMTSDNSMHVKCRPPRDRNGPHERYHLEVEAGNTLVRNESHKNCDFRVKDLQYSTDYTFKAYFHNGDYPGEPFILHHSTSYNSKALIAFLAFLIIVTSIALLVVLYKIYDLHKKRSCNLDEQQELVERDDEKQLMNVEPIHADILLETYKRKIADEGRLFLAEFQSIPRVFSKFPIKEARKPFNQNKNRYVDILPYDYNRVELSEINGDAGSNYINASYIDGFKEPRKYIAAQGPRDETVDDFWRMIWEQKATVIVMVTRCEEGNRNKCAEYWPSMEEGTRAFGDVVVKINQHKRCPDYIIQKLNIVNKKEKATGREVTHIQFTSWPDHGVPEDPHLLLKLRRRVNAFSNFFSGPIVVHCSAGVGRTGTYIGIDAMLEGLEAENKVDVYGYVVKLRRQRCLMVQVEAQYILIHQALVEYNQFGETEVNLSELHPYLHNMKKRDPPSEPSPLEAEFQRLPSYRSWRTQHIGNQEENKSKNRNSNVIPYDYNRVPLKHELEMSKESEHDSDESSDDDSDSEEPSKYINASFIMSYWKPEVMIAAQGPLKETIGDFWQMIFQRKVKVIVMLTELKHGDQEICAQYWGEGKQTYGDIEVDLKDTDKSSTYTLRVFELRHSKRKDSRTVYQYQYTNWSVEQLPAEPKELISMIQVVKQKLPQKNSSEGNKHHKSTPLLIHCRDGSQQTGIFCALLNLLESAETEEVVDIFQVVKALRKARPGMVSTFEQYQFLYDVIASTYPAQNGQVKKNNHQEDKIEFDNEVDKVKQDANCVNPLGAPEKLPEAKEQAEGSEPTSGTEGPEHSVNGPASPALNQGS
pIC50: −log10 of the molar value.
Form field: pIC50 (one value per entry).

# pIC50 (compound: O=C(C(c1ccccc1)S(=O)(=O)O)N1CCCC2CCCCC21 (stereo not shown) ) is < 3.70

# pIC50 (compound: `O=C(CS(=O)(=O)O)Nc1cnc2ccccc2c1` ) is < 4.00

# pIC50 (compound: O=C(C(c1ccccc1)S(=O)(=O)O)N1CCC(Cc2ccccc2)CC1 (stereo not shown) ) is < 3.70

Others:
# pIC50 (compound: O=C(Nc1nccs1)C(c1ccccc1)S(=O)(=O)O (stereo not shown) ) is < 4.00
